Cited source for all entries: patent US20210154188A1

- System: TGFb/SMAD Signaling Pathway SBE reporter cell line
- test-method-notes: TGFb reporter assay (luciferase)
- Format: cell-based
- condition-notes: 5-6 h preincubation, then TGFb, 18 h, luminescence
readout-name: IC50

Illustrative cases are given below, each with its answer.
| compound | IC50 |
| --- | --- |
| Cc1cccc(-c2nc(CNc3ccc4c(c3)CCNC4)[nH]c2-c2ccc3ncnn3c2)n1 | 100 to 1000 nM |
| Cc1cccc(-c2nc(CNc3ccc4c(c3)C(N)CC4)[nH]c2-c2ccc3ncnn3c2)n1 (centres unmarked) | 100 to 1000 nM |

Look up IC50 with TGFb/SMAD Signaling Pathway SBE reporter cell line for this compound: Cc1cccc(-c2nc(C34CCC(N)(CC3)CC4)[nH]c2-c2ccc3ncnn3c2)n1
1000 to 10000 nM

Notebook: pull reported IC50 for TGFb/SMAD Signaling Pathway SBE reporter cell line, entry Cc1cccc(-c2nc(CN[C@@H]3CCc4ccccc43)[nH]c2-c2ccc3ncnn3c2)n1
10 to 100 nM

Fill in the recorded IC50 for this compound, with TGFb/SMAD Signaling Pathway SBE reporter cell line as test system: Cc1cccc(-c2nc(C3CCCNC3)[nH]c2-c2ccc3ncnn3c2)n1 (centres unmarked)
100 to 1000 nM

Test system TGFb/SMAD Signaling Pathway SBE reporter cell line; read-out IC50; what value for Cc1cccc(-c2nc(CNc3ccc4c(c3)CCC4N)[nH]c2-c2ccc3ncnn3c2)n1 (centres unmarked) ?
100 to 1000 nM

Param readout = IC50; param system = TGFb/SMAD Signaling Pathway SBE reporter cell line; param query = Cc1cccc(-c2nc(CNC3CCNCC3)[nH]c2-c2ccn3ncnc3c2)n1 ; response: value
1000 to 10000 nM

# query: IC50 | item CC(=O)NC1Cc2cccc(NCc3nc(-c4cccc(C)n4)c(-c4ccc5ncnn5c4)[nH]3)c2C1 (centres unmarked) | system: TGFb/SMAD Signaling Pathway SBE reporter cell line
100 to 1000 nM
